All values here come from patent US9458179B2.

# assaySystem: α-7 nicotinic ACh receptor ion channel (Rattus norvegicus, UniProt Q05941)
# Construct: expressed in transfected cells
# Sequence (Q05941 23-502): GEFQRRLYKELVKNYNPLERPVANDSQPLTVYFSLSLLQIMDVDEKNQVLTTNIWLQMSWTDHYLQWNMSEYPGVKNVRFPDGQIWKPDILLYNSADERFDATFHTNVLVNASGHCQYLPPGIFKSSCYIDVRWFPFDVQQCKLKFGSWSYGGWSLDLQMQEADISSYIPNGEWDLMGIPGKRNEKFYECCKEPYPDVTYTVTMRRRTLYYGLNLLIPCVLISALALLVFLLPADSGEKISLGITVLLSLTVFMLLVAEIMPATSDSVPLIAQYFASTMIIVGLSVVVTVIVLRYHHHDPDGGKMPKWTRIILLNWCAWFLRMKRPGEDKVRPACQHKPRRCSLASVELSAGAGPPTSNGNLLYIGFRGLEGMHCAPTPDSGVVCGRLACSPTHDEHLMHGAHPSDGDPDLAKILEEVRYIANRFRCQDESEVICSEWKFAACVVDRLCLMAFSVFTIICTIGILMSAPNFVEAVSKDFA
# testDescription: Ca2+-sensitive fluorescence-based FLIPR assay of α7 nicotinic receptor channel function (agonist activity)
# Type: cell-based
# details: FLIPR α7-HI (EC50, nM), HEK 293 cells, Ca2+ flux; Table 2, activity class column
The following compounds are listed with their measured EC50 values.

> print(dat)
                                   compound                               assaysystem     recordedresult
1  COc1ccc2nc(NC3=NC4(CO3)CN3CCC4CC3)sc2c1 (centres unmarked)  α-7 nicotinic ACh receptor ion channel (Rattus norvegicus, UniProt Q05941)  1000 to 100000 nM

Shift focus to the following entry.
Tested system α-7 nicotinic ACh receptor ion channel (Rattus norvegicus, UniProt Q05941); EC50 recorded for c1ccc(-c2cnc(NC3=NC4(CO3)CN3CCC4CC3)s2)cc1 (centres unmarked) was 100 to 1000 nM

====

# assaySystem: α-7 nicotinic ACh receptor ion channel (Rattus norvegicus)
# Construct: expressed in transfected cells
# testDescription: Ca2+-sensitive fluorescence-based FLIPR assay of α7 nicotinic receptor channel function (agonist activity)
# Format: cell-based
# details: FLIPR α7-HI (EC50, nM), HEK 293 cells, Ca2+ flux; Table 3
Field 'label' (enum: Fulfilled / Not fulfilled). Set to Fulfilled when EC50 is strictly under 300 nM; else Not fulfilled.

Please review the following examples before continuing.
> print(dat)
                                   compound  categorylabel
1  c1ccc(-c2cnc(NC3=NCCC4(CN5CCC4CC5)O3)s2)cc1 (centres unmarked)      Fulfilled
2  c1csc(NC2=NCCC3(CN4CCC3CC4)O2)n1 (centres unmarked)  Not fulfilled

Lab log: compare recorded EC50 with 300 nM; is it strictly lower for c1ccc2cc(NC3=NCCC4(CN5CCC4CC5)O3)ncc2c1 (centres unmarked) ?
Fulfilled

I wonder whether COc1cc(NC2=NCCC3(CN4CCC3CC4)O2)ncn1 (centres unmarked) has EC50 below 300 nM. Can you tell?
Not fulfilled

Determine if c1ccc2nc(NC3=NCCC4(CN5CCC4CC5)O3)ccc2c1 (centres unmarked) shows EC50 strictly lower than 300 nM.
Not fulfilled

====

# assaySystem: α-7 nicotinic ACh receptor ion channel (Rattus norvegicus)
# Construct: expressed in transfected cells
# testDescription: Ca2+-sensitive fluorescence-based FLIPR assay of α7 nicotinic receptor channel function (agonist activity)
# Format: cell-based
# details: FLIPR α7-HI (EC50, nM), HEK 293 cells, Ca2+ flux; Table 3, activity class
property: EC50

> print(dat)
                                   compound     recordedresult
1  Brc1ccc2nc(NC3=NCCC4(CN5CCC4CC5)O3)sc2n1 (stereo not shown)  1000 to 100000 nM
2  COc1ccc2nc(NC3=NCCC4(CN5CCC4CC5)O3)sc2c1 (stereo not shown)     100 to 1000 nM
3  Cc1nnc(NC2=NCCC3(CN4CCC3CC4)O2)nc1C (stereo not shown)  1000 to 100000 nM

Data point: COc1cc(NC2=NCCC3(CN4CCC3CC4)O2)ncn1 (stereo not shown) ; EC50 = 1000 to 100000 nM

Record summary for Clc1ccc(NC2=NCCC3(CN4CCC3CC4)O2)nc1 (stereo not shown) : reported EC50 = 1000 to 100000 nM

// EC50 lookup, compound = c1ccc2nc(NC3=NCCC4(CN5CCC4CC5)O3)ncc2c1 (stereo not shown) , result: 100 to 1000 nM

// Clc1cnc(NC2=NCCC3(CN4CCC3CC4)O2)cn1 (stereo not shown) : EC50 value = 1000 to 100000 nM

Documented EC50 of Clc1ccc(NC2=NCCC3(CN4CCC3CC4)O2)nn1 (stereo not shown) : 1000 to 100000 nM

# EC50 (compound: c1ccc2cc(NC3=NCCC4(CN5CCC4CC5)O3)ncc2c1 (stereo not shown) [Example 76] ) is 100 to 1000 nM

For record c1ccc2cc(NC3=NCCC4(CN5CCC4CC5)O3)ncc2c1 (single isomer, unassigned) [Example 76b] the listed EC50 is > 1e+06 nM

The compound listed as COc1ncc2nc(NC3=NCCC4(CN5CCC4CC5)O3)sc2n1 (stereo not shown) has a reported EC50 of 1000 to 100000 nM

Entry c1ccc(-c2cnc(NC3=NCCC4(CN5CCC4CC5)O3)s2)cc1 (stereo not shown) , EC50 reported as < 100 nM

Short answer for c1ccc2nc(NC3=NCCC4(CN5CCC4CC5)O3)cnc2c1 (stereo not shown) : EC50 was 1000 to 100000 nM

For reference, reported EC50 for c1ccc2c(NC3=NCCC4(CN5CCC4CC5)O3)ncnc2c1 (stereo not shown) stands at 100 to 1000 nM

// sample c1csc(NC2=NCCC3(CN4CCC3CC4)O2)n1 (stereo not shown) , its EC50 was 1000 to 100000 nM

Entry under test: Clc1cnc(NC2=NCCC3(CN4CCC3CC4)O2)nc1 (stereo not shown) . Its EC50 was 1000 to 100000 nM

// field: EC50; key: c1ccc2sc(NC3=NCCC4(CN5CCC4CC5)O3)nc2c1 (stereo not shown) ; value = 100 to 1000 nM

Sample c1ccc2nc(NC3=NCCC4(CN5CCC4CC5)O3)ccc2c1 (stereo not shown) ; EC50 observed: 1000 to 100000 nM

Entry c1ccc2cc(NC3=NCCC4(CN5CCC4CC5)O3)ncc2c1 (single isomer, unassigned) [Example 76a] ; EC50 = 100 to 1000 nM

====

# assaySystem: α-7 nicotinic ACh receptor ion channel (Rattus norvegicus, UniProt Q05941)
# Construct: expressed in transfected cells
# testDescription: Ca2+-sensitive fluorescence-based FLIPR assay of α7 nicotinic receptor channel function (agonist activity)
# Assay type: cell-based
# details: FLIPR α7-HI (EC50, nM), HEK 293 cells, Ca2+ flux; Table 1, activity class
EC50 overview

For orientation, consider the following solved cases.
> print(dat)
                                   compound                               assaysystem     recordedresult
1  c1ccc2sc(NC3=NCC4(CN5CCC4CC5)N3)nc2c1 (single isomer, unassigned) [Example 11a]  α-7 nicotinic ACh receptor ion channel (Rattus norvegicus, UniProt Q05941)           < 100 nM
2  CN(C)c1ccc2nc(NC3=NCC4(CN5CCC4CC5)N3)sc2n1 (stereo not shown)  α-7 nicotinic ACh receptor ion channel (Rattus norvegicus, UniProt Q05941)  1000 to 100000 nM
3  COc1ncc2nc(NC3=NCC4(CN5CCC4CC5)N3)sc2n1 (stereo not shown)  α-7 nicotinic ACh receptor ion channel (Rattus norvegicus, UniProt Q05941)  1000 to 100000 nM
4  Clc1ccc2nc(NC3=NCC4(CN5CCC4CC5)N3)sc2n1 (stereo not shown) [Example 28]  α-7 nicotinic ACh receptor ion channel (Rattus norvegicus, UniProt Q05941)           < 100 nM
5  CN1C(Nc2nc3ccc(F)nc3s2)=NCC12CN1CCC2CC1 (stereo not shown)  α-7 nicotinic ACh receptor ion channel (Rattus norvegicus, UniProt Q05941)  1000 to 100000 nM

Short answer for Fc1cccc2sc(NC3=NCC4(CN5CCC4CC5)N3)nc12 (stereo not shown) : EC50 was < 100 nM

Form: compound = CN1C(Nc2ccc3ccccc3n2)=NCC12CN1CCC2CC1 (stereo not shown) ; EC50 = 100 to 1000 nM

The compound listed as Clc1ccc2nc(NC3=NCC4(CN5CCC4CC5)N3)sc2n1 (single isomer, unassigned) [Example 28b] has a reported EC50 of 1000 to 100000 nM

Per the records, this compound ( Cc1ccc2nc(NC3=NCC4(CN5CCC4CC5)N3)oc2c1 (stereo not shown) [Example 8] ) has EC50 equal to < 100 nM

EC50 reading for CN1C(Nc2nc3ccccn3n2)=NCC12CN1CCC2CC1 (stereo not shown) : 1000 to 100000 nM

Please fill in: EC50 reported for CCN1C(Nc2nc3ccc(OC)cc3s2)=NCC12CN1CCC2CC1 (stereo not shown) = 100 to 1000 nM

So for c1cnc2sc(NC3=NCC4(CN5CCC4CC5)N3)nc2c1 (stereo not shown) , the logged EC50 turned out to be < 100 nM

The recorded EC50 for entry Cc1ccc2c(NC3=NCC4(CN5CCC4CC5)N3)ncnn12 (stereo not shown) equals 100 to 1000 nM
